System: Bovine cardiac myofibrils
test_method_notes: In vitro model of dose-dependent myofibril ATPase modulation (AC1.4, pyruvate kinase/lactate dehydrogenase-coupled ATPase assay at pCa25)
Format: biochemical
stated_conditions: concentration at which ATPase activity was 1.4-fold higher than the bottom of the dose curve, mean of a minimum of two independent tests
experimental_endpoint: AC1.4 (µM)

In the examples that follow, each entry is paired with its recorded AC1.4.
molecule: CS(=O)(=O)c1cncc(C(=O)N2C[C@@H](F)C[C@@H]2C(=O)N[C@@H](c2cc(F)c(Cl)cc2F)C2CC2)c1 [Example 488]
experimental_value: 2.1245

molecule: CC(C)[C@@H](NC(=O)[C@H]1CCCN1C(=O)c1cccc(S(=O)(=O)N(C)C)c1)c1ccc(C(F)(F)F)cc1F [Example 185]
experimental_value: 0.3371

P: CS(=O)(=O)c1cccc(C(=O)N2[C@@H](C(=O)N[C@@H](c3ccc(Cl)c(F)c3)C3CC3)C[C@H]3C[C@H]32)c1 [Example 485]
Q: N#CC1CN(S(=O)(=O)N2CCC[C@H](C(=O)N3CCC[C@@H]3C(=O)N[C@H](c3cc(F)c(Cl)cc3F)C3CNC3)C2)C1 [Example 47]
R: CC1(C#N)CN(S(=O)(=O)N2CCC[C@H](C(=O)N3CCC[C@@H]3C(=O)NCc3ccc(C(F)(F)F)cc3)C2)C1 [Example 156]
S: CS(=O)(=O)c1cncc(C(=O)N2C[C@H](C(F)F)C[C@@H]2C(=O)N[C@@H](c2ccc(C(F)(F)F)cc2F)C2CC2)c1 [Example 682]
Req: Order the records so the highest AC1.4 appears first and the lowest last. Your task in answering is to list the labels in the requested order.
Resp: S, P, R, Q
